Target: T1, Human ErbB3 extracellular part fused to Fc of human IgG1 (human, UniProt P21860 20-643)
T1 construct: extracellular domain; also called ErbB3-Fc chimeric protein; not shown: Fc region of human IgG1
T1 sequence (P21860 20-643): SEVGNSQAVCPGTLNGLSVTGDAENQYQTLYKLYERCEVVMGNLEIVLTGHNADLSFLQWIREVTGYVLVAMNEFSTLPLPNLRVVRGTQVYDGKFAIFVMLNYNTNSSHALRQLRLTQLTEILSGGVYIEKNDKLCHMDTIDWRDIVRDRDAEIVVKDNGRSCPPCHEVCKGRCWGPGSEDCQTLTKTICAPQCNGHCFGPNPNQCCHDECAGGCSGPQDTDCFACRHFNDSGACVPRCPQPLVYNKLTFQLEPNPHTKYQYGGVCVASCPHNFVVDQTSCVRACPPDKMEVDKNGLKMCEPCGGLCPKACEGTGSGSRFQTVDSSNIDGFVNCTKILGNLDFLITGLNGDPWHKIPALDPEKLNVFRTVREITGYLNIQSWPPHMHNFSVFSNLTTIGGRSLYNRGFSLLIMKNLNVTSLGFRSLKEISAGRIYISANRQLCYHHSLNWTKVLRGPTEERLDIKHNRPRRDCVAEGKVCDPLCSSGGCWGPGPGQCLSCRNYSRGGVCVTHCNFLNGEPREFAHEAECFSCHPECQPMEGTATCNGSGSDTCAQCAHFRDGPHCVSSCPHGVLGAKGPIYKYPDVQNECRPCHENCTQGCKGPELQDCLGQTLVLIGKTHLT
Assay: SPR (BIAcore 2000), peptide dendrimer immobilized, receptor ECD-Fc injected; mean ± SEM
Experimental: Binding analyses were performed with the surface plasmon resonance (SPR)-based biosensor instrument BIAcore2000 (BIAcore AB, Uppsala, Sweden), at 25° C. using ready-made HBS-EP buffer (BIAcore AB) as running buffer. […] ErbB receptor proteins were injected at various concentrations at a flow rate of 20 μl/min, and binding to the peptides immobilized on the chip was measured in real-time. […] Data were analyzed by nonlinear curve fitting using the manufacturer' software. […]
Where no end group is shown, it is not given here.
result.type: pKd
By convention, pKd is the negative base-10 log of a molar concentration.

binder	reported.result
FVYNPTTFQLEMNFNAK (also: tetrameric dendrimer: four monomers coupled to a lysine backbone, also called 4DL) [Inherbin4 peptide, tetrameric dendrimer]	7.70

QUERY: Name the recorded pKd for LVYNKLTFQLEPNPHTK (also: tetrameric dendrimer: four monomers coupled to a lysine backbone, also called 3DL) [Inherbin3d, tetrameric dendrimer of the Inherbin3 peptide] .
RESULT: 7.75
